Here the recorded melting point is given for each entry.

CCCn1cc2c(C3C(=O)Nc4ccc(Br)cc43)ncnc2n1 (stereo not drawn) : > 300 °C
O=C1Nc2c(F)cc(F)cc2C1c1ncnc2nn(C3CCCC3)cc12 (stereo not drawn) : 296 to 297 °C
CCOCCn1cc2c(C3C(=O)Nc4ccc(Cl)cc43)nc(Cl)nc2n1 (stereo not drawn) : > 300 °C
CCCn1cc2c(C3C(=O)Nc4ccc(Br)cc43)nc(NC[C@@H](C)N)nc2n1 (stereo partly drawn) : 247 to 250 °C
N#Cc1ccc2c(c1)C(c1ncnc3c1cnn3C1CCCC1)C(=O)N2 (stereo not drawn) : > 300 °C
O=C1Nc2ccccc2C1c1nc(NCCc2ccccn2)nc2nn(C3CCCC3)cc12 (stereo not drawn) : 246 to 248 °C
C=CCNc1nc(C2C(=O)Nc3ccc(C(F)(F)F)cc32)c2cn(C3CCCC3)nc2n1 (stereo not drawn) : > 300 °C
O=C1Nc2ccc(Cl)cc2C1c1ncnc2c1cnn2C1CCCCC1 (stereo not drawn) : 300 to 305 °C

Please find the next compound below.
// returns reported melting point for input O=C1Nc2ccccc2C1c1nc(NCCCN2CCOCC2)nc2nn(C3CCCC3)cc12 (stereo not drawn)
242 to 245 °C

====

melting point for assorted compounds

Would you please look over these solved cases?
N#Cc1cccc2c1NC(=O)C2c1ncnc2c1cnn2C1CCCCC1 (centres unmarked) [Example 70] : > 300 °C
CN(C)CCNc1nc(C2C(=O)Nc3ccc(Cl)cc32)c2cn(C3CCCC3)nc2n1 (centres unmarked) [Example 376] : 145 to 148 °C
O=C1Nc2ccc(F)cc2C1c1ncnc2nn(C3CCCC3)cc12 (centres unmarked) [Example 40] : 256 to 260 °C
CCOCCn1cc2c(C3C(=O)Nc4ccc(Cl)cc43)nc(NC[C@H](C)O)nc2n1 (some centres unmarked) [Example 219] : > 300 °C
O=C1Nc2ccc(Cl)cc2C1c1nc(NCCc2cccnc2)nc2nn(C3CCCC3)cc12 (centres unmarked) [Example 279] : 277 to 281 °C

Here's the next entry for you.
Quick one: melting point of N#Cc1ccc2c(c1)NC(=O)C2c1ncnc2c1cnn2C1CCCCC1 (centres unmarked) [Example 69] ?
> 300 °C

====

# MEASURED TARGET: CDK5/GST-p25 (Homo sapiens)
# Construct: The final construct, encoding for full-length human CDK5; made in house; host or cells: Sf21 insect cells (baculovirus co-infection)
# ASSAY OVERVIEW: Inhibition of CDK5/GST-p25 kinase activity (ELISA with time-resolved fluorescence readout)
# Assay type: biochemical
# MEASUREMENT PARAMETERS: class symbols
IC50 by entry:

Example results:
O=C1Nc2ccc(Br)cc2C1c1ncnc2nn(C3CCCCC3)cc12 (centres unmarked) : < 300 nM
COCCn1cc2c(C3C(=O)Nc4ccc(Br)cc43)nc(NCCCN(C)C)nc2n1 (centres unmarked) : < 300 nM
CCCOCCNc1nc2c(c(C3C(=O)Nc4ccc(Br)cc43)n1)CCC2 (centres unmarked) : > 10000 nM
O=C1Nc2ccc(C(F)(F)F)cc2C1c1nc(Cl)nc2nn(C3CCCC3)cc12 (centres unmarked) : > 10000 nM
N#Cc1ccc2c(c1)C(c1nc(NCc3ccccn3)nc3nn(C4CCCC4)cc13)C(=O)N2 (centres unmarked) : < 300 nM
N#Cc1ccc2c(c1)C(c1nc(N3CCN(CCCc4ccccc4)CC3)nc3nn(C4CCCC4)cc13)C(=O)N2 (centres unmarked) : > 10000 nM
CCOCCn1cc2c(C3C(=O)Nc4ccc(Cl)cc43)nc(NC[C@@H](C)O)nc2n1 (some centres unmarked) : < 300 nM
C=CCn1cc2c(C3C(=O)Nc4ccc(C#N)cc43)ncnc2n1 (centres unmarked) : < 300 nM

// IC50 lookup, key: N#Cc1ccc2c(c1)C(c1nc(NCCCN3CCOCC3)nc3nn(C4CCCC4)cc13)C(=O)N2 (centres unmarked)
< 300 nM

Report IC50 for CCCn1cc2c(C3C(=O)Nc4ccc(Br)cc43)nc(NCCN)nc2n1 (centres unmarked) please.
< 300 nM

Could you tell me which IC50 is on file for O=C1Nc2ccc(F)cc2C1c1ncnc2c1cnn2C1CCCC1 (centres unmarked) ?
> 10000 nM

What measured IC50 goes with CN(C)CCN(C)c1nc(C2C(=O)Nc3ccc(Cl)cc32)c2cn(C3CCCC3)nc2n1 (centres unmarked) ?
> 10000 nM

Item under review: COCCNc1nc(C2C(=O)Nc3ccc(Br)cc32)c2cn(CC(C)C)nc2n1 (centres unmarked) . Reported IC50?
< 300 nM

====

The reader will find reported IC50 values listed item by item below.
# MEASURED TARGET: CDK5/GST-p25 (Homo sapiens, UniProt Q00535)
# Construct: The final construct, encoding for full-length human CDK5; made in house; host or cells: Sf21 insect cells (baculovirus co-infection)
# Sequence (Q00535 whole entry): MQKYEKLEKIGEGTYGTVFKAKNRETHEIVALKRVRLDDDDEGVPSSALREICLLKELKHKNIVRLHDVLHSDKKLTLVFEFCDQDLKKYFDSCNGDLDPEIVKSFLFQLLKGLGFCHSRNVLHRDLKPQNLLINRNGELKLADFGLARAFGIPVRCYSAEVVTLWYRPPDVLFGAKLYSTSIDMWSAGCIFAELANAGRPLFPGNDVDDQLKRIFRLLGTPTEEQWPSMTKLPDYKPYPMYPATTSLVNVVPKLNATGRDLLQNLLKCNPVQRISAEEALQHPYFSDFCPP
# Sequence (Q15078 108-307 partner limits assumed): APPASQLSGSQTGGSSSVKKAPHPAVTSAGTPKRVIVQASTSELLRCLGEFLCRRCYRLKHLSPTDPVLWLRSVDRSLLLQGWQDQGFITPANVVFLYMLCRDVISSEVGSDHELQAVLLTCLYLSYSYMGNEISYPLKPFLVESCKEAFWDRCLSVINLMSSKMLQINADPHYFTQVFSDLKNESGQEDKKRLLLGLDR
# ASSAY OVERVIEW: Inhibition of CDK5/GST-p25 kinase activity (ELISA with time-resolved fluorescence readout)
# Assay type: biochemical
# MEASUREMENT PARAMETERS: class symbols

Field: example entries. Status: answers known.
CC(C)n1cc2c(C3C(=O)Nc4ccc(C#N)cc43)ncnc2n1 (stereo not drawn) [Example 382] : < 300 nM
N#Cc1ccc2c(c1)C(c1ncnc3nn(C4CCCCC4)cc13)C(=O)N2 (stereo not drawn) [Example 45] : < 300 nM
CCCn1cc2c(C3C(=O)Nc4ccc(Br)cc43)nc(NCCC(F)(F)F)nc2n1 (stereo not drawn) [Example 192] : < 300 nM
N#Cc1ccc2c(c1)C(c1nc(NCc3cccnc3)nc3c1CCC3)C(=O)N2 (stereo not drawn) [Example 348] : < 300 nM

For the compound shown here, N#Cc1ccc2c(c1)C(c1nc(Cl)nc3c1CCC3)C(=O)N2 (stereo not drawn) [Example 317] , give the reported IC50.
> 10000 nM

Sample CCCn1cc2c(C3C(=O)Nc4ccc(C#N)cc43)nc(NCc3cccnc3)nc2n1 (stereo not drawn) [Example 184] — what was its IC50?
< 300 nM

I'd like to know its IC50. The compound in question is CC(C)Cn1cc2c(C3C(=O)Nc4ccc(Cl)cc43)nc(Cl)nc2n1 (stereo not drawn) [Example 273]
> 10000 nM

Consider the compound CCCn1cc2c(C3C(=O)Nc4ccc(C)cc43)nc(NCCCOC)nc2n1 (stereo not drawn) [Example 310] and give its measured IC50.
300 to 3000 nM

What does the data say about its IC50? Entry: N#Cc1ccc2c(c1)C(c1nc(NCCc3ccncc3)nc3nn(C4CCCC4)cc13)C(=O)N2 (stereo not drawn) [Example 126]
< 300 nM

====

# MEASURED TARGET: CDK5/GST-p25 (Homo sapiens, UniProt Q00535)
# Construct: The final construct, encoding for full-length human CDK5; made in house; host or cells: Sf21 insect cells (baculovirus co-infection)
# ASSAY OVERVIEW: Inhibition of CDK5/GST-p25 kinase activity (ELISA with time-resolved fluorescence readout)
# Assay type: biochemical
# MEASUREMENT PARAMETERS: class symbols
Counter-ions that a name gives are not always drawn.
ASSAY READOUT: IC50

The cases that follow already have their IC50 on record.
CCCn1cc2c(C3C(=O)Nc4ccc(Br)cc43)nc(NCCc3cccnc3)nc2n1 (stereo not shown) [Example 189] : < 300 nM
CNCCCNc1nc(C2C(=O)Nc3ccc(C(F)(F)F)cc32)c2cn(C3CCCC3)nc2n1 (stereo not shown) [Example 253, hydrochloride salt] : 300 to 3000 nM
Cn1nc([N+](=O)[O-])c2c(C3C(=O)Nc4ccc(C#N)cc43)ncnc21 (stereo not shown) [Example 148] : > 10000 nM

So what's the measured IC50 for this one? CCCn1cc2c(C3C(=O)Nc4ccc(C#N)cc43)nc(NCCc3cccnc3)nc2n1 (stereo not shown) [Example 185]
< 300 nM

====

# MEASURED TARGET: CDK5/GST-p25 (Homo sapiens)
# Construct: The final construct, encoding for full-length human CDK5; made in house; host or cells: Sf21 insect cells (baculovirus co-infection)
# ASSAY OVERVIEW: Inhibition of CDK5/GST-p25 kinase activity (ELISA with time-resolved fluorescence readout)
# Type: biochemical
# MEASUREMENT PARAMETERS: class symbols
Where a name gives a salt, the structure may show the parent alone.
ASSAY READOUT: IC50

// below: answered compounds
CC(C)Cn1cc2c(C3C(=O)Nc4ccc(Br)cc43)nc(NCCCN(C)C)nc2n1 (centres unmarked) [Example 269] : < 300 nM
O=C1Nc2ccccc2C1c1ncnc2c1cnn2C1CCCC1 (centres unmarked) [Example 62] : > 10000 nM
Cn1ncc2c(C3C(=O)Nc4ccc(C#N)cc43)ncnc21 (centres unmarked) [Example 108] : < 300 nM

I would be grateful if you could share the reported IC50 for N#Cc1ccc2c(c1)C(c1nc(N3CCCC3)nc3nn(C4CCCC4)cc13)C(=O)N2 (centres unmarked) [Example 132] .
> 10000 nM

# IC50 lookup, item CCCn1cc2c(C3C(=O)Nc4ccc(Br)cc43)nc(NCCCNC)nc2n1 (centres unmarked) [Example 201, hydrochloride]
< 300 nM

Origin of the recorded values: patent US8354414B2
